Cited source: paper PMC4427200

Measured target: SaBADH (Staphylococcus aureus, UniProt A0A0H2X0S3)
Construct: gene betB; pMCSG7 tagged protein (Ni-NTA), E. coli BL21(DE3)/pMAGIC; tetramer/dimer; G234S cloned in p15TV-LIC
Procedure details: SPR, immobilized SaBADH(BME+)
Format: binding
Could you please report measured Kd for the items listed next?
Answers are plain numbers, in µM.

NC(=O)c1ccc[n+]([C@@H]2O[C@H](COP(=O)(O)OP(=O)(O)OC[C@H]3O[C@@H](n4cnc5c(N)ncnc54)[C@H](O)[C@@H]3O)[C@@H](O)[C@H]2O)c1 = 19.3

[in] Input `NC(=O)C1=CN([C@@H]2O[C@H](COP(=O)(O)OP(=O)(O)OC[C@H]3O[C@@H](n4cnc5c(N)ncnc54)[C@H](O)[C@@H]3O)[C@@H](O)[C@H]2O)C=CC1` , output reported Kd.
[out] 4.5
